test system: preformed thrombi on collagen coated surface; test: Real time thrombosis perfusion chamber assay, destabilization of preformed thrombi; assay type: cell-based; conditions: aspirinated blood over preformed aspirinated thrombi
Bridge positions count the residues as written; N and C are the ends. Square brackets hold non-standard residues; d marks the D form. Peptide text beside a SMILES is read from it. hArg = N=C(N)NCCCC[C@H](N)C(=O)O; Mpa = O=C(O)CCS
readout: effect on preformed thrombi, aspirin background

>>> observed_result("CSc1nc(N)c2ncn([C@@H]3O[C@H](COP(=O)(O)O)[C@@H](O)[C@H]3O)c2n1 [2-MeSAMP]")
"sudden dethrombosis"
>>> observed_result("N=C(N)NCCCC[C@@H]1NC(=O)CCSSC[C@@H](C(N)=O)NC(=O)[C@@H]2CCCN2C(=O)[C@H](Cc2c[nH]c3ccccc23)NC(=O)[C@H](CC(=O)O)NC(=O)CNC1=O [eptifibatide] ([Mpa][hArg]GDWPC-NH2; disulfide 1-7)")
"sudden dethrombosis"
